Biological target: rat mGlu3 receptor (Rattus norvegicus (Rat))
Sequence (P31422 23-879): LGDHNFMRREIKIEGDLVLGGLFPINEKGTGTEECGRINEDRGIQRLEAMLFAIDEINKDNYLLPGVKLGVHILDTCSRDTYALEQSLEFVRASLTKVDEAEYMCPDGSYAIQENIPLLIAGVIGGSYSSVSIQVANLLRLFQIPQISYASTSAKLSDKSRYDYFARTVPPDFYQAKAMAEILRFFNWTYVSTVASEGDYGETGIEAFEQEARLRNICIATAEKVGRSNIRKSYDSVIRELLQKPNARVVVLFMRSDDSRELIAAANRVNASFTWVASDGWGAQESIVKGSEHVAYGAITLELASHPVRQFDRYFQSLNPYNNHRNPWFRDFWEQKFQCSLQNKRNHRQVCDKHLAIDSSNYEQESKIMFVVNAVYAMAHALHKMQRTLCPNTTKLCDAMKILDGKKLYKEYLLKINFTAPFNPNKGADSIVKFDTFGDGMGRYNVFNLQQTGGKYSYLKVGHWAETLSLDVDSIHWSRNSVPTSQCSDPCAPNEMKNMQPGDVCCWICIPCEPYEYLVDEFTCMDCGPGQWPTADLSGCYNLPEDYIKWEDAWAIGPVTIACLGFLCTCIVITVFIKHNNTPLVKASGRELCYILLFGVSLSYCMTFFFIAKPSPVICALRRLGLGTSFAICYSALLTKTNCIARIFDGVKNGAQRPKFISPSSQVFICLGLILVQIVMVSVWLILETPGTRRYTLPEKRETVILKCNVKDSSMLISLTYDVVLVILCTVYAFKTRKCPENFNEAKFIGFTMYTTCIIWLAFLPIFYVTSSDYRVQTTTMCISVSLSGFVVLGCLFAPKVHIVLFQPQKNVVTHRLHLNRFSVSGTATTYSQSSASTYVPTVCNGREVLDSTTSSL
Assay: mGlu3 in vitro GIRK thallium flux assay
Type: cell-based
Details: NAM; 2.5 min compound incubation; EC80 glutamate; HEK-293 GIRK cells
Overview of reported EC50 across a group of molecules:

Solved entries:
O=C(O)c1cc(-c2cccc(-c3nc(-c4ccc(Cl)cc4F)cc(C(F)(F)F)n3)c2)ccc1F: 5.34 µM
CNC(=O)c1cc(-c2cccc(-c3nc(-c4ccc(C(F)(F)F)nc4)cc(C(F)(F)F)n3)c2)ccc1Cl: > 30 µM
O=C1CC(c2cccc(-c3cccnc3)c2)=Nc2ccc(Br)cc2N1: 1.37 µM
O=C(O)c1cc(-c2cccc(Sc3nc(-c4ccco4)cc(C(F)(F)F)n3)c2)ccc1F: > 10 µM
O=C(O)c1cccc(-c2cccc(-c3cc(-c4ccccc4)on3)c2)c1: > 10 µM

Task item: Which EC50 value is on record for O=C(O)c1cc(F)cc(-c2cccc(-c3nc(-c4ccc(C(F)(F)F)nc4)cc(C(F)(F)F)n3)c2)c1 ?
Reply: 1.61 µM

Task item: Entry O=C(O)c1cc(-c2cccc(-c3csc(-c4ccccc4)n3)c2)cc([N+](=O)[O-])c1 please
Reply: > 10 µM

Task item: Can you handle Cc1cc2c(cc1C(F)(F)F)NC(=O)CC(c1cccc(Oc3cc(F)cc(F)c3)c1)=N2 next?
Reply: > 10 µM

Task item: What do we get for O=C1CC(c2ccnc(-c3ccccc3)c2)=Nc2ccc(C(F)(F)F)cc2N1 ?
Reply: 0.46 µM

Task item: Also need O=C(O)c1cc(-c2ccc(-c3nc(-c4ccc(C(F)(F)F)nc4)cc(C(F)(F)F)n3)cc2)ccc1Cl , thanks.
Reply: > 10 µM

Task item: Next molecule up: O=C(O)c1cc(-c2cccc(-c3nc(-c4cc5ccccc5o4)cc(C(F)(F)F)n3)c2)ccc1F
Reply: > 10 µM

Task item: Cool, now Fc1ccc(C#Cc2cccc(-c3nc(-c4ccc(C(F)(F)F)nc4)cc(C(F)(F)F)n3)c2)cc1
Reply: > 30 µM

Task item: # iterate: O=C(O)c1cc(F)cc(-c2cccc(-c3nc(-c4ccoc4)cc(C(F)(F)F)n3)c2)c1
Reply: 1.15 µM

Task item: Same for N#Cc1cc(C2=Nc3ccc(Cl)cc3NC(=O)C2)ccn1
Reply: > 10 µM

Task item: O=C(O)c1cccc(-c2cccc(-c3csc(-c4ccc5ccccc5c4)n3)c2)c1 ?
Reply: > 30 µM

Task item: Another molecule to check: N#Cc1cc(C2=Nc3ccc(C(F)(F)F)cc3NC(=O)C2)ccn1
Reply: 0.41 µM
